Where these numbers come from: ChEMBL document CHEMBL1821627

- subject_of_test: Transcriptional activator protein TraR (Agrobacterium tumefaciens, UniProt P33905)
- Sequence (P33905 whole entry): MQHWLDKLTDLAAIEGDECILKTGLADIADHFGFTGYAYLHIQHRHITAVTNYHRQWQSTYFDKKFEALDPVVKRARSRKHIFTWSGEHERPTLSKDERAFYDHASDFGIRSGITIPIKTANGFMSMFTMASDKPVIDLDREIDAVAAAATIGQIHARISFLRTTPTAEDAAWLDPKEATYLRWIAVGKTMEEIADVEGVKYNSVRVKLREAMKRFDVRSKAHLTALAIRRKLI
- experiment_summary: Antagonist activity at Agrobacterium tumefaciens TraR receptor in presence of 100 nM 3-oxo-C8-HSL
property_name: pIC50
Recall that pIC50 is obtained by taking minus log10 of the concentration measured in molar.

>>> result("CCCCCCC(=O)N[C@H]1CCOC1=O")
6.16

IN: Lab note: record pIC50 of CCCCCCCCCC(=O)N[C@H]1CCOC1=O tested on Transcriptional activator protein TraR (Agrobacterium tumefaciens, UniProt P33905).
OUT: 5.98
